protocol description: Chemical stability of the compound in MEM cell culture medium after 7 days by HPLC analysis
Format: physicochemical
details: read-out: Stability
The threshold is 90%. Values of remaining at 168 h beneath it are tagged Yes; values meeting or exceeding it are tagged No.

Example entries and their recorded answers appear below.
COc1ccc(CCNC(=O)[C@@]2(C)CC[C@]3(C)CC[C@]4(C)C(=CC(=O)[C@@H]5[C@@]6(C)CC[C@H](O)C(C)(C)[C@@H]6CC[C@]54C)[C@@H]3C2)cc1OC :: Yes
CC1(C)[C@@H](O)CC[C@]2(C)[C@H]3C(=O)C=C4[C@@H]5C[C@@](C)(C(=O)O)CC[C@]5(C)CC[C@@]4(C)[C@]3(C)CC[C@@H]12 :: No
CCOC(=O)CCNC(=O)NCCNC(=O)[C@@]1(C)CC[C@]2(C)CC[C@]3(C)C(=CC(=O)[C@@H]4[C@@]5(C)CC[C@H](O)C(C)(C)[C@@H]5CC[C@]43C)[C@@H]2C1 :: No
COc1cc(/C=C/C(C)=O)ccc1OC(=O)[C@@]1(C)CC[C@]2(C)CC[C@]3(C)C(=CC(=O)[C@@H]4[C@@]5(C)CC[C@H](O)C(C)(C)[C@@H]5CC[C@]43C)[C@@H]2C1 :: Yes
CC1(C)[C@@H](O)CC[C@]2(C)[C@H]3C(=O)C=C4[C@@H]5C[C@@](C)(C(=O)NCCNC(=S)Nc6ccccc6)CC[C@]5(C)CC[C@@]4(C)[C@]3(C)CC[C@@H]12 :: No

input: Dear colleague, could you confirm whether remaining at 168 h of COc1ccc(CCNC(=O)[C@@]2(C)CC[C@]3(C)CC[C@]4(C)C(=CC(=O)[C@@H]5[C@@]6(C)CCC(=O)C(C)(C)[C@@H]6CC[C@]54C)[C@@H]3C2)cc1 falls below 90%? Thanks.
output: No

input: Strictly below 90%: is that where remaining at 168 h of CC1(C)[C@@H](O)CC[C@]2(C)[C@H]3C(=O)C=C4[C@@H]5C[C@@](C)(C(=O)NCCNC(=O)c6ccc(C(F)(F)F)cc6)CC[C@]5(C)CC[C@@]4(C)[C@]3(C)CC[C@@H]12 sits?
output: No

input: Is it true that remaining at 168 h reported for COc1cccc(C(=O)NCCNC(=O)[C@@]2(C)CC[C@]3(C)CC[C@]4(C)C(=CC(=O)[C@@H]5[C@@]6(C)CC[C@H](O)C(C)(C)[C@@H]6CC[C@]54C)[C@@H]3C2)c1 is less than 90%?
output: No

input: Report whether reported remaining at 168 h is lower than 90% (strictly) for CC1(C)[C@@H](O)CC[C@]2(C)[C@H]3C(=O)C=C4[C@@H]5C[C@@](C)(C(=O)NCCNC(=O)Nc6cc(C(F)(F)F)cc(C(F)(F)F)c6)CC[C@]5(C)CC[C@@]4(C)[C@]3(C)CC[C@@H]12
output: No

----------
System: PC-3
protocol description: Growth inhibition in apoptosis-sensitive human PC3 after 3 days by MTT assay
Assay type: functional
details: PC-3, 72 h
Please respond with reported GI50 for every item in the list.
Answers are plain numbers, in µM.

Look over these answered cases.
CC1(C)[C@@H](O)CC[C@]2(C)[C@H]3C(=O)C=C4[C@@H]5C[C@@](C)(C(=O)NCCNC(=O)c6ccc(F)cc6)CC[C@]5(C)CC[C@@]4(C)[C@]3(C)CC[C@@H]12 :: 30
CC1(C)[C@@H](O)CC[C@]2(C)[C@H]3C(=O)C=C4[C@@H]5C[C@@](C)(C(=O)O)CC[C@]5(C)CC[C@@]4(C)[C@]3(C)CC[C@@H]12 :: 80
COc1cccc(C(=O)NCCNC(=O)[C@@]2(C)CC[C@]3(C)CC[C@]4(C)C(=CC(=O)[C@@H]5[C@@]6(C)CC[C@H](O)C(C)(C)[C@@H]6CC[C@]54C)[C@@H]3C2)c1 :: 72
COc1cc(/C=C/C(C)=O)ccc1OC(=O)[C@@]1(C)CC[C@]2(C)CC[C@]3(C)C(=CC(=O)[C@@H]4[C@@]5(C)CC[C@H](O)C(C)(C)[C@@H]5CC[C@]43C)[C@@H]2C1 :: 2
COc1ccc(CCNC(=O)[C@@]2(C)CC[C@]3(C)CC[C@]4(C)C(=CC(=O)[C@@H]5[C@@]6(C)CCC(=O)C(C)(C)[C@@H]6CC[C@]54C)[C@@H]3C2)cc1 :: 52
CC1(C)[C@@H](O)CC[C@]2(C)[C@H]3C(=O)C=C4[C@@H]5C[C@@](C)(C(=O)NCCNC(=O)Nc6ccccc6)CC[C@]5(C)CC[C@@]4(C)[C@]3(C)CC[C@@H]12 :: 32

Kindly give each listed record's GI50.
1. CSc1ccc(C(=O)NCCNC(=O)[C@@]2(C)CC[C@]3(C)CC[C@]4(C)C(=CC(=O)[C@@H]5[C@@]6(C)CC[C@H](O)C(C)(C)[C@@H]6CC[C@]54C)[C@@H]3C2)cc1
2. CC1(C)[C@@H](O)CC[C@]2(C)[C@H]3C(=O)C=C4[C@@H]5C[C@@](C)(C(=O)NCCNC(=S)Nc6ccccc6)CC[C@]5(C)CC[C@@]4(C)[C@]3(C)CC[C@@H]12

output:
1: 47; 2: 9

----------
System: T98G
protocol description: Growth inhibition in apoptosis-resistant human T98G after 3 days by MTT assay
Type: functional
details: 72 h
measurement name: GI50

CC1(C)[C@@H](O)CC[C@]2(C)[C@H]3C(=O)C=C4[C@@H]5C[C@@](C)(C(=O)NCCNC(=O)c6ccc(C(F)(F)F)cc6)CC[C@]5(C)CC[C@@]4(C)[C@]3(C)CC[C@@H]12 :: 62 µM

Kindly give each listed record's GI50.
1. CC1(C)[C@@H](O)CC[C@]2(C)[C@H]3C(=O)C=C4[C@@H]5C[C@@](C)(C(=O)NCCNC(=O)Nc6ccccc6)CC[C@]5(C)CC[C@@]4(C)[C@]3(C)CC[C@@H]12
2. COc1ccc(CCNC(=O)[C@@]2(C)CC[C@]3(C)CC[C@]4(C)C(=CC(=O)[C@@H]5[C@@]6(C)CC[C@H](O)C(C)(C)[C@@H]6CC[C@]54C)[C@@H]3C2)cc1
3. COc1ccc(CCNC(=O)[C@@]2(C)CC[C@]3(C)CC[C@]4(C)C(=CC(=O)[C@@H]5[C@@]6(C)CC[C@H](O)C(C)(C)[C@@H]6CC[C@]54C)[C@@H]3C2)cc1OC
4. CC(C)(C)OC(=O)NCCNC(=O)[C@@]1(C)CC[C@]2(C)CC[C@]3(C)C(=CC(=O)[C@@H]4[C@@]5(C)CC[C@H](O)C(C)(C)[C@@H]5CC[C@]43C)[C@@H]2C1
5. CC1(C)[C@@H](O)CC[C@]2(C)[C@H]3C(=O)C=C4[C@@H]5C[C@@](C)(C(=O)NCCNC(=O)c6ccc(C#N)cc6)CC[C@]5(C)CC[C@@]4(C)[C@]3(C)CC[C@@H]12

output:
30 µM
68 µM
91 µM
73 µM
77 µM

----------
Tested on: T98G
protocol description: Growth inhibition in apoptosis-resistant human T98G after 3 days by MTT assay
Type: functional
details: 72 h
Assignment: determine reported GI50 for the given compounds.
Give bare numbers, in µM.

As a guide, the following entries are already answered.
CSc1ccc(C(=O)NCCNC(=O)[C@@]2(C)CC[C@]3(C)CC[C@]4(C)C(=CC(=O)[C@@H]5[C@@]6(C)CC[C@H](O)C(C)(C)[C@@H]6CC[C@]54C)[C@@H]3C2)cc1 :: 54
COC(=O)[C@@]1(C)CC[C@]2(C)CC[C@]3(C)C(=CC(=O)[C@@H]4[C@@]5(C)C=C(I)C(=O)C(C)(C)[C@@H]5CC[C@]43C)[C@@H]2C1 :: 6
CC1(C)[C@@H](O)CC[C@]2(C)[C@H]3C(=O)C=C4[C@@H]5C[C@@](C)(C(=O)NCCNC(=O)c6ccc(F)cc6)CC[C@]5(C)CC[C@@]4(C)[C@]3(C)CC[C@@H]12 :: 35
CCOC(=O)CCNC(=O)NCCNC(=O)[C@@]1(C)CC[C@]2(C)CC[C@]3(C)C(=CC(=O)[C@@H]4[C@@]5(C)CC[C@H](O)C(C)(C)[C@@H]5CC[C@]43C)[C@@H]2C1 :: 71
CC1(C)[C@@H](O)CC[C@]2(C)[C@H]3C(=O)C=C4[C@@H]5C[C@@](C)(C(=O)NCCNC(=S)Nc6ccccc6)CC[C@]5(C)CC[C@@]4(C)[C@]3(C)CC[C@@H]12 :: 25
CC1(C)[C@@H](O)CC[C@]2(C)[C@H]3C(=O)C=C4[C@@H]5C[C@@](C)(C(=O)NCc6ccc(C(F)(F)F)cc6)CC[C@]5(C)CC[C@@]4(C)[C@]3(C)CC[C@@H]12 :: 67

Consider the additional compound presented here.
Quick note, GI50 for CSCCCNC(=S)NCCNC(=O)[C@@]1(C)CC[C@]2(C)CC[C@]3(C)C(=CC(=O)[C@@H]4[C@@]5(C)CC[C@H](O)C(C)(C)[C@@H]5CC[C@]43C)[C@@H]2C1 landed at 35
